# Target: T1, 4H3638-bN
# T1 chain: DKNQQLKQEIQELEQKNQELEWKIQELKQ
# Test: two-hybrid library CCNG1;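 further: natural log of median RNA to DNA barcode read ratio; higher means stronger binding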
Quantity measured: interaction score

Recorded results for 5 binders are shown here.
>>> meas_value("DENQQLKQKIQELEQEIQELKWENQELKQ [4H1804-bN]")
-0.805
>>> meas_value("DKNQQLKQEIQELEQKIQELKWKNQELEQ [4H3631-bN]")
-1.15
>>> meas_value("DENQQLEQENQELKQEIQELEWKIQELKQ [4H1222-bN]")
0.921
>>> meas_value("DENQQLKQEIQELKQENQELKWKIQELEQ [4H1629-bN]")
-1.43
>>> meas_value("DKNQQLEQEIQELEQKNQELKWEIQELEQ [4H3129-bN]")
-1.26

A = DENQQLEQKIQELKQEIQELKWKNQELEQ [4H1359-bN]
B = DENQQLEQKIQELKQKNQELEWEIQELEQ [4H1393-bN]
Query: Which shows the larger interaction score value: A or B ? Give the label of your selection.
Result: B
